Attribution: patent US5141959A

- target or test system: human platelet PLA2 (Homo sapiens)
- Construct: The enzyme was isolated from human platelets
- Sequence (P14555 21-144): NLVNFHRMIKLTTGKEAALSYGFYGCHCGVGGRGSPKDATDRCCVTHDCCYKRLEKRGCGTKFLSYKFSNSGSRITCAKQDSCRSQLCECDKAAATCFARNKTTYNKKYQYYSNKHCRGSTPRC
- method summary: PLA2 Inhibition Assay (14C-oleate labeled E. coli membrane substrate)
- applied conditions: preincubation 7 min, incubation 30 min, 37° C., pH 7; unit inferred; read-out: IC50 for inhibition of human platelet phospholipase A2
parameter measured: pIC50
pIC50 is defined as minus the log10 of a concentration measured in mol/L.

Ask: What pIC50 value was documented for this compound, CC1=C(/C=C/C(C)=C/C=C(/C(C)=C\C(=O)O)c2cccc(C(=O)O)c2)C(C)(C)CCC1 [Compound I] ?
Reply: 4.40
